- target.entity: human IBAT (Homo sapiens)
- Construct: expressed in transfected cells; host or cells: Baby hamster kidney (BHK) cells, clone H14
- Sequence (Q12908 1-348): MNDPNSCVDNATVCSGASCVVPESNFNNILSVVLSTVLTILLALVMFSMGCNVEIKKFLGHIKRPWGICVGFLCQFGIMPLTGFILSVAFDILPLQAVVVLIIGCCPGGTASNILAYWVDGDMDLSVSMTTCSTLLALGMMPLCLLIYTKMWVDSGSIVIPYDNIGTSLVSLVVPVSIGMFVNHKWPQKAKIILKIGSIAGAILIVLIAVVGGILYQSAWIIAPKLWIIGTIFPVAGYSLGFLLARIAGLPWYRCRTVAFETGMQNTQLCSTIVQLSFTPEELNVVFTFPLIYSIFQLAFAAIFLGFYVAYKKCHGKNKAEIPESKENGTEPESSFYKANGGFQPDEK
- method.summary: In vitro assay of IBAT-mediated uptake of [14C]-taurocholate (TC) in H14 cells
- Type: cell-based
- condition.details: read-out: Human TC IC50
pIC50: −log10 of the molar value.
pIC50 reference

{"compound": "CCCCC1(CCCC)CS(=O)(=O)c2ccc(N(C)C)cc2C(c2cccc(OCCOCCOCC[N+](CC)(CC)CCNS(=O)(=O)c3ccccc3)c2)C1O (stereo not shown)", "pIC50": 8.10}
{"compound": "CCCCC1(CCCC)CS(=O)(=O)c2ccc(N(C)C)cc2C(c2ccc(OC)cc2)C1O (stereo not shown) [Example 1100]", "pIC50": 8.17}
{"compound": "CCCCC1(CCCC)CS(=O)(=O)c2ccc(N)cc2[C@@H](c2ccc(F)cc2)[C@H]1O", "pIC50": 7.34}
{"compound": "CCCCC1(CCCC)CS(=O)(=O)c2ccc(NC(C)C)cc2C(c2cccc(OC)c2)C1O (stereo not shown)", "pIC50": 6.70}

---

- target.entity: human IBAT (Homo sapiens)
- Construct: expressed in transfected cells; host or cells: Baby hamster kidney (BHK) cells, clone H14
- method.summary: In vitro assay of IBAT-mediated uptake of [14C]-taurocholate (TC) in H14 cells
- Assay type: cell-based
- condition.details: 100 uM; read-out: In vitro % Inhibition of TC Uptake @ 100 uM

{"molecule": "CC[C@@H]1CS(=O)(=O)c2ccccc2[C@H](c2ccccc2)[C@H]1O [Example 14a]", "target.entity": "human IBAT (Homo sapiens)", "value.unit": "%", "inhibition at 100 µM": 13}
{"molecule": "CCCC[C@]1(CC)CS(=O)(=O)c2ccccc2[C@@H]2O[C@@H]21 [Example 19a]", "target.entity": "human IBAT (Homo sapiens)", "value.unit": "%", "inhibition at 100 µM": 0}
{"molecule": "CCCCC1(CC)C=C(c2ccccc2)c2ccccc2SC1 (centres unmarked) [Example 3]", "target.entity": "human IBAT (Homo sapiens)", "value.unit": "%", "inhibition at 100 µM": 0}
{"molecule": "CCCC[C@]1(CC)CS(=O)(=O)c2ccccc2[C@@]2(c3ccccc3)O[C@@H]12 [Example 8a]", "target.entity": "human IBAT (Homo sapiens)", "value.unit": "%", "inhibition at 100 µM": 41}
{"molecule": "CCCC[C@]1(CC)CSc2ccccc2[C@@H](c2ccccc2)C1=O (relative stereo) [Example 4b]", "target.entity": "human IBAT (Homo sapiens)", "value.unit": "%", "inhibition at 100 µM": 9}
{"molecule": "CCC1CS(=O)(=O)c2ccccc2[C@@]2(c3ccccc3)O[C@@H]12 (some centres unmarked) [Example 13]", "target.entity": "human IBAT (Homo sapiens)", "value.unit": "%", "inhibition at 100 µM": 23}
{"molecule": "CCCCC1(CC)C=Cc2ccccc2SC1 (centres unmarked) [Example 18, 3-Butyl-3-ethyl-2,3-dihydrobenzothiepine]", "target.entity": "human IBAT (Homo sapiens)", "value.unit": "%", "inhibition at 100 µM": 6}
{"molecule": "CC[C@@H]1CS(=O)(=O)c2ccccc2[C@@H](c2ccccc2)[C@H]1O [Example 14b]", "target.entity": "human IBAT (Homo sapiens)", "value.unit": "%", "inhibition at 100 µM": 18}
